# Tested on: HEK-293T
# PROTOCOL TEXT: Multiplex assay against HEK293T
# Type: toxicity, cell-based
# CONDITIONS: human, 12 h, 1 µM, compound concentration 1 uM, replicate 2
The label depends only on Population Tubulin-Different-Phenotype (%): yes (1) if it is at least 30%, no (0) if it is smaller.

Textbook exercise: given the entry NCCc1cn(S(=O)(=O)c2c(Cl)nc3sccn23)c2ccccc12.O=C(O)C(=O)O , state whether its Population Tubulin-Different-Phenotype (%) is greater than or equal to 30%.
yes (1)

Given the entry N#Cc1c(Oc2cccc(OS(=O)(=O)CCCC(F)(F)F)c2)cccc1C(F)(F)F , answer whether its Population Tubulin-Different-Phenotype (%) meets or surpasses 30%.
no (0)

Can CC[C@@H](C)Nc1nc(C)nc2c(-c3ccc(OC)nc3C)c(C)nn12 [PEXACERFONT] be said to have Population Tubulin-Different-Phenotype (%) at or above 30%?
yes (1)

Given the entry N#Cc1cc(F)cc(-c2nc(-c3ccc(F)cn3)no2)c1 , answer whether its Population Tubulin-Different-Phenotype (%) meets or surpasses 30%.
no (0)

// inclusive: Population Tubulin-Different-Phenotype (%) at least 30%? input: COc1ccccc1N1CCN(C[C@@H](C(=O)NC(C)(C)C)c2ccccc2)CC1.Cl.Cl
yes (1)

Population Tubulin-Different-Phenotype (%) >= 30% for CCCOc1ccc2[nH]cc(C3=CCNCC3)c2n1.Cl ?
no (0)

Test whether the compound CC(C)COc1ccc(CNC(=O)N(Cc2ccc(F)cc2)C2CCN(C)CC2)cc1 [PIMAVANSERIN] records Population Tubulin-Different-Phenotype (%) of 30% or higher.
yes (1)

Every entry's value here was drawn from ChEMBL document CHEMBL5058577.
